- studySystem: UniProt:P0AE70
- Sequence (P0AE70 whole entry): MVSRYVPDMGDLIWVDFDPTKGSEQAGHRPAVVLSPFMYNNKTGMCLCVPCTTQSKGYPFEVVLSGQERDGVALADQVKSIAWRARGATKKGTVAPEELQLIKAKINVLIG
- testProtocol: substrate-only fluorescence increase artefacts – biochemical, single-stranded RNase substrate, counter-screen for MazEF activator project, dose response (AID 588502)
- Assay type: functional
The source made the active and inactive calls. No stated cut-off is given here; in the data, active = EC50 of 20 µM or less and inactive = more.
Entry note: the call must match one of label 1 (active), label 0 (inactive)

Examples from the recorded data:
INSERT INTO assay_data (compound, discretelabel) VALUES
  ('Cc1ccc(-c2ccccc2NC(=O)C[S+]([O-])CC(=O)Nc2ccc(C)c(Cl)c2)o1 (centres undefined)', 'label 0'),
  ('CN(C)c1ccc(/N=C/c2nc(-c3ccccc3)oc2O)cc1', 'label 0'),
  ('C=CCn1c(=O)/c(=C\c2ccccn2)s/c1=C(/C#N)C(=O)NCC1CCCO1 (centres undefined)', 'label 0'),
  ('COc1ccccc1N1C(=O)S/C(=C\c2cc(C)n(C)c2C)C1=O', 'label 0'),
  ('NNS(=O)(=O)c1ccc2c(c1)Cc1cc(S(=O)(=O)NN)ccc1-2', 'label 1'),
  ('CC(=O)CSc1nc2cc3c(cc2cc1C#N)OCCO3', 'label 0');

Dear all, I need the recorded test outcome for Cc1cc(NC(=O)/C(C#N)=C\c2ccc(-c3ccc(SC(F)F)cc3)o2)n(-c2ccccc2)n1 , thank you. label 0

Could you kindly confirm the outcome this assay logged for COC(=O)c1nn2c(C(F)(F)F)cc(-c3ccc(Br)o3)nc2c1Br ? label 0

What was the test verdict on CSc1ccc(S(=O)(=O)NCC(=O)OCCOc2ccccc2)cc1[N+](=O)[O-] ? label 0
